Tested on: Aspergillus niger
Assay: Ratio of MFC99.9 to MIC90 for Aspergillus niger 545 at 35 degC after 48 hrs by CLSI method based antimicrobial assay
Format: functional
Give measured Ratio for each item. Keep answers brief.

[ask] Please state recorded Ratio (tested on Aspergillus niger) of O=[N+]([O-])c1ccc(-c2csc(N/N=C(/Cn3nnc4ccccc43)c3ccc(F)cc3)n2)cc1
[reply] 4

[ask] // repeat for Fc1ccc(/C(Cn2nnc3ccccc32)=N\Nc2nc(-c3cc(C(F)(F)F)cc(C(F)(F)F)c3)cs2)cc1 and report
[reply] 4

[ask] // repeat for Clc1ccc(-c2csc(N/N=C(/Cn3nnc4ccccc43)c3ccc(Br)cc3)n2)cc1 and report
[reply] 2

[ask] // repeat for O=[N+]([O-])c1ccc(/C(Cn2nnc3ccccc32)=N\Nc2nc(-c3cc(C(F)(F)F)cc(C(F)(F)F)c3)cs2)cc1 and report
[reply] 2
